System: Onchocerca gutturosa adult male worms
assay.name: O. gutturosa adult male worm 5-day motility assay
experimental.setup: 7.8 x 10^-7 M, 48 h
Each record here notes measured Motility Reduction (%).
Return type: number; implicit unit %.

Below, 3 molecules whose answers are already recorded.
{"columns": ["molecule", "unit.of.measure", "Motility Reduction (%)"],
 "data": [
  ["COC(=O)Nc1nc2ccc([S+]([O-])c3ccccc3)cc2[nH]1 (stereo not shown)", "%", 5],
  ["COC(=O)Nc1nc2cc(C(=O)c3ccc(F)cc3)ccc2[nH]1", "%", 9],
  ["CCCSc1ccc2nc(NC(=O)OC)[nH]c2c1", "%", 9]
]}

### Prompt Complete the entry with Motility Reduction (%) for Cl.Cl.NCCS[As](SCCN)c1ccc(Nc2nc(N)nc(N)n2)cc1 [Immiticide, melarsomine dihydrochloride]
### Response 74

These entries and their values trace back to paper PMC7365463.
